# assay method text: In vitro protein binding, rapid equilibrium dialysis
# Format: in vitro ADME
# test context: human, plasma
Peptide text beside a SMILES is read from it.
assay metric: fraction unbound at 6 h, 0.2 µM

Sure, the documented fraction unbound at 6 h, 0.2 µM for CC(C)[C@@H](NC(=O)[C@H](N)Cc1ccc(O)cc1)C(=O)N[C@H](CC(=O)O)C(=O)N[C@H](CCCCN)C(=O)N[C@H](CCCNC(=N)N)C(=O)O [FC-12738, (D-Tyr)-(D-Val)-(D-Asp)-(D-Lys)-(D-Arg)] (HELM PEPTIDE1{[dY].[dV].[dD].[dK].[dR]}$$$$V2.0) is 0.428

----------
# assay method text: Plasma stability
# Format: in vitro ADME, SD rat
# test context: SD, rat, plasma
Peptide text beside a SMILES is read from it.
assay metric: remaining at 0.5 h, 2 μM
State the value with its unit after it.

Value of measured remaining at 0.5 h, 2 μM for the entry CC(C)[C@@H](NC(=O)[C@H](N)Cc1ccc(O)cc1)C(=O)N[C@H](CC(=O)O)C(=O)N[C@H](CCCCN)C(=O)N[C@H](CCCNC(=N)N)C(=O)O [FC-12738, (D-Tyr)-(D-Val)-(D-Asp)-(D-Lys)-(D-Arg)] (HELM PEPTIDE1{[dY].[dV].[dD].[dK].[dR]}$$$$V2.0) : 102%

----------
# assay method text: Single-dose pharmacokinetics in SD rats
# Assay type: in vivo, SD rat
# test context: male, SD, rat, plasma, iv, 2 mg/kg
Peptide text beside a SMILES is read from it.
assay metric: half-life (min)
Express your answer in min, writing the number without its unit.

For reference, reported half-life for CC(C)[C@@H](NC(=O)[C@H](N)Cc1ccc(O)cc1)C(=O)N[C@H](CC(=O)O)C(=O)N[C@H](CCCCN)C(=O)N[C@H](CCCNC(=N)N)C(=O)O [FC-12738, (D-Tyr)-(D-Val)-(D-Asp)-(D-Lys)-(D-Arg)] (HELM PEPTIDE1{[dY].[dV].[dD].[dK].[dR]}$$$$V2.0) stands at 19.1

----------
# assay method text: Excretion study in SD rats following single subcutaneous administration
# Type: in vivo, SD rat
# test context: male, Sprague-Dawley, rat, urine, sc, 10 mg/kg
Peptide text beside a SMILES is read from it.
assay metric: dose excreted at 4 h (%)
Please give a number only; it is taken to be in %.

Data point: CC(C)[C@@H](NC(=O)[C@H](N)Cc1ccc(O)cc1)C(=O)N[C@H](CC(=O)O)C(=O)N[C@H](CCCCN)C(=O)N[C@H](CCCNC(=N)N)C(=O)O [FC-12738, (D-Tyr)-(D-Val)-(D-Asp)-(D-Lys)-(D-Arg)] (HELM PEPTIDE1{[dY].[dV].[dD].[dK].[dR]}$$$$V2.0) ; dose excreted at 4 h = 56.2

----------
# assay method text: Single rising dose pharmacokinetics in beagle dogs
# Assay type: in vivo, beagle dog
# test context: male, beagle, dog, plasma, sc, 1 mg/kg
Peptide text beside a SMILES is read from it.
assay metric: Tmax (h)
Just the number in h, nothing appended.

# Tmax (molecule: CC(C)[C@@H](NC(=O)[C@H](N)Cc1ccc(O)cc1)C(=O)N[C@H](CC(=O)O)C(=O)N[C@H](CCCCN)C(=O)N[C@H](CCCNC(=N)N)C(=O)O [FC-12738, (D-Tyr)-(D-Val)-(D-Asp)-(D-Lys)-(D-Arg)] (HELM PEPTIDE1{[dY].[dV].[dD].[dK].[dR]}$$$$V2.0) ) is 1

----------
# assay method text: Plasma stability
# Assay type: in vitro ADME, beagle dog
# test context: beagle, dog, plasma
Peptide text beside a SMILES is read from it.
assay metric: remaining at 0.5 h, 2 μM
Please provide the amount together with its unit, number first.

Lab note: measured remaining at 0.5 h, 2 μM of CC(C)[C@@H](NC(=O)[C@H](N)Cc1ccc(O)cc1)C(=O)N[C@H](CC(=O)O)C(=O)N[C@H](CCCCN)C(=O)N[C@H](CCCNC(=N)N)C(=O)O [FC-12738, (D-Tyr)-(D-Val)-(D-Asp)-(D-Lys)-(D-Arg)] (HELM PEPTIDE1{[dY].[dV].[dD].[dK].[dR]}$$$$V2.0) was 105%

----------
# assay method text: Single-dose pharmacokinetics in SD rats
# Format: in vivo, SD rat
# test context: male, SD, rat, plasma, sc, 10 mg/kg
Peptide text beside a SMILES is read from it.
assay metric: Tmax (min)
// note: answer is a bare numeric in min

The compound listed as CC(C)[C@@H](NC(=O)[C@H](N)Cc1ccc(O)cc1)C(=O)N[C@H](CC(=O)O)C(=O)N[C@H](CCCCN)C(=O)N[C@H](CCCNC(=N)N)C(=O)O [FC-12738, (D-Tyr)-(D-Val)-(D-Asp)-(D-Lys)-(D-Arg)] (HELM PEPTIDE1{[dY].[dV].[dD].[dK].[dR]}$$$$V2.0) shows Tmax equal to 25

----------
# assay method text: In vitro protein binding, rapid equilibrium dialysis
# Type: in vitro ADME
# test context: beagle, dog, plasma
Peptide text beside a SMILES is read from it.
assay metric: fraction unbound at 6 h, 0.2 µM
Write the value as a bare number.

fraction unbound at 6 h, 0.2 µM reported for this compound CC(C)[C@@H](NC(=O)[C@H](N)Cc1ccc(O)cc1)C(=O)N[C@H](CC(=O)O)C(=O)N[C@H](CCCCN)C(=O)N[C@H](CCCNC(=N)N)C(=O)O [FC-12738, (D-Tyr)-(D-Val)-(D-Asp)-(D-Lys)-(D-Arg)] (HELM PEPTIDE1{[dY].[dV].[dD].[dK].[dR]}$$$$V2.0) : 0.492

----------
# assay method text: Excretion study in SD rats following single subcutaneous administration
# Format: in vivo, SD rat
# test context: male, Sprague-Dawley, rat, feces, sc, 10 mg/kg
Peptide text beside a SMILES is read from it.
assay metric: dose excreted at 4 h (%)
Report as a plain number; the unit % is understood.

// sample CC(C)[C@@H](NC(=O)[C@H](N)Cc1ccc(O)cc1)C(=O)N[C@H](CC(=O)O)C(=O)N[C@H](CCCCN)C(=O)N[C@H](CCCNC(=N)N)C(=O)O [FC-12738, (D-Tyr)-(D-Val)-(D-Asp)-(D-Lys)-(D-Arg)] (HELM PEPTIDE1{[dY].[dV].[dD].[dK].[dR]}$$$$V2.0) , its dose excreted at 4 h was 0.00168

----------
# assay method text: Single rising dose pharmacokinetics in beagle dogs
# Type: in vivo, beagle dog
# test context: male, beagle, dog, plasma, sc, 5 mg/kg
Peptide text beside a SMILES is read from it.
assay metric: AUC(0-inf) (ng·h/mL)
Express your answer in ng·h/mL, writing the number without its unit.

For record CC(C)[C@@H](NC(=O)[C@H](N)Cc1ccc(O)cc1)C(=O)N[C@H](CC(=O)O)C(=O)N[C@H](CCCCN)C(=O)N[C@H](CCCNC(=N)N)C(=O)O [FC-12738, (D-Tyr)-(D-Val)-(D-Asp)-(D-Lys)-(D-Arg)] (HELM PEPTIDE1{[dY].[dV].[dD].[dK].[dR]}$$$$V2.0) the listed AUC(0-inf) is 16800

----------
# assay method text: Plasma stability
# Format: in vitro ADME, human
# test context: human, plasma
Peptide text beside a SMILES is read from it.
assay metric: remaining at 10 min, 2 μM

# remaining at 10 min, 2 μM (molecule: CC(C)[C@@H](NC(=O)[C@H](N)Cc1ccc(O)cc1)C(=O)N[C@H](CC(=O)O)C(=O)N[C@H](CCCCN)C(=O)N[C@H](CCCNC(=N)N)C(=O)O [FC-12738, (D-Tyr)-(D-Val)-(D-Asp)-(D-Lys)-(D-Arg)] (HELM PEPTIDE1{[dY].[dV].[dD].[dK].[dR]}$$$$V2.0) ) is 93.3%

----------
# assay method text: Excretion study in SD rats following single subcutaneous administration
# Format: in vivo, SD rat
# test context: male, Sprague-Dawley, rat, feces, sc, 10 mg/kg
Peptide text beside a SMILES is read from it.
assay metric: dose excreted at 8 h (%)
Give your result in % as a bare value.

Looking up CC(C)[C@@H](NC(=O)[C@H](N)Cc1ccc(O)cc1)C(=O)N[C@H](CC(=O)O)C(=O)N[C@H](CCCCN)C(=O)N[C@H](CCCNC(=N)N)C(=O)O [FC-12738, (D-Tyr)-(D-Val)-(D-Asp)-(D-Lys)-(D-Arg)] (HELM PEPTIDE1{[dY].[dV].[dD].[dK].[dR]}$$$$V2.0) , I found its dose excreted at 8 h recorded as 0.00239

----------
# assay method text: In vitro protein binding, rapid equilibrium dialysis
# Format: in vitro ADME
# test context: CD-1, mouse, plasma
Peptide text beside a SMILES is read from it.
assay metric: fraction unbound at 6 h, 0.2 µM
Lab note: jot down the number only; don't add units.

// fraction unbound at 6 h, 0.2 µM lookup, compound = CC(C)[C@@H](NC(=O)[C@H](N)Cc1ccc(O)cc1)C(=O)N[C@H](CC(=O)O)C(=O)N[C@H](CCCCN)C(=O)N[C@H](CCCNC(=N)N)C(=O)O [FC-12738, (D-Tyr)-(D-Val)-(D-Asp)-(D-Lys)-(D-Arg)] (HELM PEPTIDE1{[dY].[dV].[dD].[dK].[dR]}$$$$V2.0) , result: 0.449
